Field: TGI. Provide a value for each of the compounds that follow.
# System: 786-0 renal
# Experiment Description: NCI tumour cell line growth inhibition, 48 h

QUERY: Print 786-0 renal TGI for "Cc1ccc(/C=C2\CN(Cc3cn(CCNc4ccnc5cc(Cl)ccc45)nn3)C/C(=C\c3ccc(C)cc3)C2=O)cc1" .
RESULT: 3.36 µM

QUERY: Print 786-0 renal TGI for CC1(O)C(=O)OC2CC([C@]3(O)CCC4[C@@H]5C[C@H]6O[C@]67[C@@H](O)C=CC(=O)[C@]7(C)C5CC[C@@]43C)C1(C)C2 (stereo not given in full) .
RESULT: 25.6 µM

QUERY: Print 786-0 renal TGI for COC(=O)/C(=N/O)C(C(=O)OC)C(=O)C(=O)Nc1c(Cl)cc(C)cc1S(=O)(=O)O (stereo not given) .
RESULT: > 100 µM

QUERY: Print 786-0 renal TGI for "O=c1c(-c2ccc(O)cc2)coc2cc(O)cc(O)c12" .
RESULT: > 100 µM

QUERY: Print 786-0 renal TGI for "CC(=O)Nc1cc2cc(NS(=O)(=O)c3cc(C(F)(F)F)cc(C(F)(F)F)c3)ccc2oc1=O" .
RESULT: > 100 µM

QUERY: Print 786-0 renal TGI for "COc1cc(/C=C/c2cc(/C=C/c3ccc(O)c(OC)c3)[nH]c(=O)n2)ccc1O" .
RESULT: 33 µM

QUERY: Print 786-0 renal TGI for "CN1N=Nc2c(C(F)(F)F)nn(-c3ccccc3)c2N(C)C1=O" .
RESULT: > 100 µM

QUERY: Print 786-0 renal TGI for Cc1cc(Cl)ccc1NC(=O)CCCC(=O)C(C(=O)c1ccccc1)c1ccccc1 (stereo not given) .
RESULT: > 100 µM

QUERY: Print 786-0 renal TGI for C[C@@H]1OCC(O)C([C@H]2OC(c3ccccc3)=N[C@H]2CO)O1 (stereo not given in full) .
RESULT: > 100 µM

QUERY: Print 786-0 renal TGI for C[C@H]1CCC/C=C/[C@@H]2C[C@H](O)C[C@H]2[C@H](O)[C@@H](SC2OC(CO)C(O)C(O)C2O)CC(=O)O1 (stereo not given in full) .
RESULT: 59.9 µM

QUERY: Print 786-0 renal TGI for "c1ccc(CNc2ncnc3n[nH]nc23)cc1" .
RESULT: > 100 µM

QUERY: Print 786-0 renal TGI for O=C1OC2C=CC1C1(CCOC1=O)C2 (stereo not given) .
RESULT: > 100 µM

QUERY: Print 786-0 renal TGI for "S=C(Nc1ccc2c(c1)Cc1ccccc1-2)Nc1ccc2c(c1)Cc1ccccc1-2" .
RESULT: > 100 µM

QUERY: Print 786-0 renal TGI for "Cn1c(=O)c2[nH]c(CCC(=O)O)nc2n(C)c1=O" .
RESULT: > 100 µM

QUERY: Print 786-0 renal TGI for COc1cc(CC2CC(c3ccc4c(c3)OCO4)OC2=O)cc(OC)c1OC (stereo not given) .
RESULT: > 100 µM

QUERY: Print 786-0 renal TGI for "C=C(C(=O)OC)[C@H]1CC/C(C)=C/CC/C(C)=C/CC[C@@]2(C)O[C@@H]2C1" .
RESULT: 29.2 µM

QUERY: Print 786-0 renal TGI for CCCC(=O)OC1CC(n2cc(F)c(=O)[nH]c2=O)OC1CO (stereo not given) .
RESULT: > 10 µM

QUERY: Print 786-0 renal TGI for "N#Cc1c(-c2ccc(Cl)cc2)cc(-c2nc3ccccc3[nH]2)nc1N" .
RESULT: 23.3 µM

QUERY: Print 786-0 renal TGI for "O=c1/c(=C/c2ccc(-c3ccc(Cl)cc3Cl)o2)sc2n1[C@@H](c1ccc3c(c1)OCO3)C=C(c1cc(F)c(Cl)cc1Cl)N=2" .
RESULT: > 100 µM

QUERY: Print 786-0 renal TGI for CC(=O)OCC(OC(C)=O)C(OC(C)=O)C(OC(C)=O)C(=O)CNn1c(-c2ccccc2Cl)nc2ccc(Br)cc2c1=O (stereo not given) .
RESULT: > 100 µM

Source: PubChem BioAssay (NCI)
